Measured MIC50, listed per entry.
Tested on: Staphylococcus aureus ATCC 27660
assay: Antimicrobial activity, MIC, modified microbroth dilution
Type: cell-based
experimental.parameters: ATCC27660, S. aureus (27660), 18 hours incubation, read-out: MIC (expressed as MIC50) S. aureus
Enter your answer as a number in µg/mL; do not include the unit.

What does the data say about its MIC50? Entry: `N=C(N)NCCCCC(=O)Nc1cc(C(F)(F)F)cc(NC(=O)Nc2ccc(Oc3cc([N+](=O)[O-])cc(C(F)(F)F)c3)cc2)c1SCCN`
25

What does the data say about its MIC50? Entry: `N=C(N)NCCCCC(=O)Nc1cc(C(F)(F)F)cc(NC(=O)Nc2cccc(Oc3cc(NC(=N)N)cc(C(F)(F)F)c3)c2)c1SCCN`
0.39

* * *

assay: Cytotoxicity, colorimetric tetrazolium assay
Format: cell-based
experimental.parameters: human, HepG2 cells (HB-8065), one hour with compound in serum-free media
Measured EC50 at 1 h, listed per entry.

As a guide, the following entries are already answered.
>  <test.smiles>
NCCCc1cc(NC(=O)Nc2ccc(SCCN)c(C(F)(F)F)c2)ccc1Oc1ccc(NCCN)c(C(F)(F)F)c1

>  <EC50 at 1 h>
238 µg/mL

$$$$
>  <test.smiles>
N=C(N)NCCCCC(=O)Nc1cc(C(F)(F)F)cc(NC(=O)Nc2ccc(Oc3cc(NCCN)cc(C(F)(F)F)c3)cc2)c1O[C@@H]1CCNC1

>  <EC50 at 1 h>
148 µg/mL

$$$$
>  <test.smiles>
N=C(N)NCCCCC(=O)Nc1cc(C(F)(F)F)cc(NC(=O)Nc2ccc(Oc3cc([N+](=O)[O-])cc(C(F)(F)F)c3)cc2)c1SCCN

>  <EC50 at 1 h>
396 µg/mL

$$$$
>  <test.smiles>
N=C(N)NCCCC(=O)Nc1cc(C(F)(F)F)cc(NC(=O)Nc2ccc3nc(-c4ccc(NCCCN)cc4)sc3c2)c1SCCN

>  <EC50 at 1 h>
49.9 µg/mL

$$$$
>  <test.smiles>
N=C(N)NCCCCC(=O)Nc1cc(C(F)(F)F)cc(NC(=O)Nc2ccc(Oc3cc(NCCCN)cc(C(F)(F)F)c3)cc2)c1SCCN

>  <EC50 at 1 h>
40 µg/mL

$$$$

What does the data say about its EC50 at 1 h? Entry: `N=C(N)NCCCCC(=O)Nc1cc(C(F)(F)F)cc(NC(=O)Nc2ccc(Oc3cc([N+](=O)[O-])cc(C(F)(F)F)c3)cc2)c1O[C@@H]1CCNC1`
> 1000 µg/mL

What does the data say about its EC50 at 1 h? Entry: `N=C(N)NCCCCC(=O)Nc1cc(C(F)(F)F)cc(NC(=O)Nc2ccc3nc(NC(=O)Nc4cc(C(F)(F)F)cc(NC(=O)CCCCNC(=N)N)c4SCCN)sc3c2)c1SCCN`
54 µg/mL

What does the data say about its EC50 at 1 h? Entry: `N=C(N)NCCCCC(=O)Nc1cc(C(F)(F)F)cc(NC(=O)Nc2ccc3nc(NC(=O)Nc4cc(C(F)(F)F)cc(NC(=O)CCCCNC(=N)N)c4O[C@@H]4CCNC4)sc3c2)c1O[C@@H]1CCNC1`
105 µg/mL

* * *

System: Staphylococcus aureus ATCC 27660
assay: Antimicrobial activity, MIC, modified microbroth dilution
Format: cell-based
experimental.parameters: ATCC27660, S. aureus (27660), 18 hours incubation, read-out: MIC (expressed as MIC50) S. aureus
Measured MIC50, listed per entry.
Enter your answer as a number in µg/mL; do not include the unit.

As a guide, the following entries are already answered.
>  <compound>
N=C(N)NCCCCC(=O)Nc1cc(C(F)(F)F)cc(NC(=O)Nc2ccc(Oc3cc(NCCN)cc(C(F)(F)F)c3)cc2)c1O[C@@H]1CCNC1 [Compound 104]

>  <MIC50 [µg/mL]>
0.049

$$$$
>  <compound>
N=C(N)NCCCCC(=O)Nc1cc(C(F)(F)F)cc(NC(=O)Nc2ccc(Oc3ccc(NCCN)c(C(F)(F)F)c3)c(CCCN)c2)c1O[C@@H]1CCNC1 [Compound 109]

>  <MIC50 [µg/mL]>
3.13

$$$$
>  <compound>
N=C(N)NCCCCC(=O)Nc1cc(C(F)(F)F)cc(NC(=O)Nc2ccc3nc(NC(=O)Nc4cc(C(F)(F)F)cc(NC(=O)CCCCNC(=N)N)c4SCCN)sc3c2)c1SCCN [Compound 111]

>  <MIC50 [µg/mL]>
0.195

$$$$
>  <compound>
N=C(N)NCCCCC(=O)Nc1cc(C(F)(F)F)cc(NC(=O)Nc2ccc(Oc3ccc(NCCN)c(C(F)(F)F)c3)c(CCCN)c2)c1SCCN [Compound 108]

>  <MIC50 [µg/mL]>
3.13

$$$$
>  <compound>
N=C(N)NCCCCC(=O)Nc1cc(C(F)(F)F)cc(NC(=O)Nc2ccc(Oc3cc(NCCN)cc(C(F)(F)F)c3)cc2)c1SCCN [Compound 106]

>  <MIC50 [µg/mL]>
0.195

$$$$

What does the data say about its MIC50? Entry: N=C(N)NCCCCC(=O)Nc1cc(C(F)(F)F)cc(NC(=O)Nc2cccc(Oc3cc(NC(=N)N)cc(C(F)(F)F)c3)c2)c1O[C@@H]1CCNC1 [Compound 116]
0.39

Where these numbers come from: patent US20140171438A1
